target: cMET receptor tyrosine kinase (GST-cMET (969-1390)) (Homo sapiens, UniProt P08581)
Sequence (P08581 969-1390): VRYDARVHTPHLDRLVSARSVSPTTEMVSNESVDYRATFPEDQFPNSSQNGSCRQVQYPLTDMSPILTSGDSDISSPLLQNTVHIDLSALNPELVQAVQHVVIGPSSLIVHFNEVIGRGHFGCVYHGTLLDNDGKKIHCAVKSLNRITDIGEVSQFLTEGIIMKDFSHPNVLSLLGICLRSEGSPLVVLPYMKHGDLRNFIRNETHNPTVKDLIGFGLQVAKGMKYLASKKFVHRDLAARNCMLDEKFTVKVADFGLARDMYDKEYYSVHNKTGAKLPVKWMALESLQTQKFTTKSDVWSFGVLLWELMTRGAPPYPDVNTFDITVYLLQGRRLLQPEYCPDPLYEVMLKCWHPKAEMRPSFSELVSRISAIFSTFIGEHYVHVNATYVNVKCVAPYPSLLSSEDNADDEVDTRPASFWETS
experiment: EPK cMET profiling assay (LanthaScreen TR-FRET antibody based kinase phosphorylation assay)
studyConditions: purified recombinant GST-cMET (969-1390), 2 μM ATP, 50 nM Fluorescein-PolyEAY, 60 minutes at room temperature; read-out: c-Met IC50
attributeMeasured: IC50 (nM)
Numbers only, in nM.

Check out these entries, answers already filled in.
- compound: "CCC(C)(C)Nc1ccc2ncc(Cc3ccc4ncccc4c3)n2n1 [Example 98]"
  target: "cMET receptor tyrosine kinase (GST-cMET (969-1390)) (Homo sapiens, UniProt P08581)"
  IC50, nM: 110
- compound: "Cn1cc(-c2ccc3ncc(Cc4cc5cccnc5cc4Cl)n3n2)cn1 [Example 241]"
  target: "cMET receptor tyrosine kinase (GST-cMET (969-1390)) (Homo sapiens, UniProt P08581)"
  IC50, nM: 37.5
- compound: "Clc1ccc(-c2ccc3ncc(Cc4ccc5ncccc5c4)n3n2)s1 [Example 41]"
  target: "cMET receptor tyrosine kinase (GST-cMET (969-1390)) (Homo sapiens, UniProt P08581)"
  IC50, nM: 56

List IC50 for every entry below, keeping the order given.
1. c1ccc2cc(-c3ccc4ncc(Cc5ccc6ncccc6c5)n4n3)ccc2c1 [Example 17]
2. c1cnc2ccc(Cc3cnc4ccc(-c5ccn[nH]5)nn34)cc2c1 [Example 69]
3. c1cnc2ccc(Cc3cnc4ccc(-c5ccc6nonc6c5)nn34)cc2c1 [Example 52]

210
820
240

List IC50 for every entry below, keeping the order given.
1. CC(c1cc2cnn(C)c2cc1F)c1cnc2ccc(-c3cnn(C)c3)nn12 (racemic) [Example 278]
2. COc1ccc2cc(-c3ccc4ncc(Cc5ccc6ncccc6c5)n4n3)ccc2c1 [Example 40]
3. c1ccc(-c2cc(-c3ccc4ncc(Cc5ccc6ncccc6c5)n4n3)on2)cc1 [Example 34]
4. c1cn2cc(Cc3cnc4ccc(-c5cnn(C6CCNCC6)c5)nn34)ccc2n1 [Example 291]
5. CCn1cc(-c2ccc3ncc(Cc4ccc5nccn5c4)n3n2)cn1 [Example 289]

1: 21; 2: 130; 3: 230; 4: 590; 5: 140

---

target: cMET receptor tyrosine kinase (GST-cMET (969-1390)) (Homo sapiens, UniProt P08581)
experiment: EPK cMET profiling assay (LanthaScreen TR-FRET antibody based kinase phosphorylation assay)
studyConditions: purified recombinant GST-cMET (969-1390), 2 μM ATP, 50 nM Fluorescein-PolyEAY, 60 minutes at room temperature; read-out: c-Met IC50
attributeMeasured: pIC50
Give bare numbers, as −log10 of the molar value.

Check out these entries, answers already filled in.
- molecule: "NC(=O)c1ccc(-c2ccc3ncc(Cc4ccc5ncccc5c4)n3n2)cc1Cl [Example 15]"
  pIC50: 8.02
- molecule: "COCCNc1ccc2ncc(Cc3ccc4ncccc4c3)n2n1 [Example 89]"
  pIC50: 7.59
- molecule: "Cn1cc(-c2ccc3ncc(Cc4ccc5ncc(-c6cccc(C#N)c6)n5c4)n3n2)cn1 [Example 305]"
  pIC50: 6.59

List pIC50 for every entry below, keeping the order given.
1. CC(c1cc2cccnc2cc1F)c1cnc2ccc(-c3cnn(C)c3)nn12 (racemic) [Example 253]
2. Cn1cc(-c2ccc3ncc(Cc4ccc5ncc(Cl)n5c4)n3n2)cn1 [Example 298]
3. FC(F)(F)c1cccc(-c2ccc3ncc(Cc4ccc5ncccc5c4)n3n2)c1 [Example 18]

[7.89, 6.89, 7.18]

List pIC50 for every entry below, keeping the order given.
1. Nc1cccc(-c2ccc3ncc(Cc4ccc5ncccc5c4)n3n2)c1 [Example 20]
2. CNCCn1cc(-c2ccc3ncc(Cc4ccc5ncccc5c4)n3n2)cn1 [Example 237]

1. 7.22
2. 6.77

Provide pIC50 value for the following molecule: Cn1cc(-c2ccc3ncc(C(C)(O)c4cc5cccnc5cc4F)n3n2)cn1 (racemic) [Example 174]
6.92
